test: Plasma and tumor tissue concentrations following oral administration in VCaP xenograft model (HPLC/MS/MS); assay type: in vivo, mice; conditions: mouse, plasma, 10 mg/kg orally once daily for 3 days, 6 hours after the last administration, read-out: Concentration in Plasma
MEASURE: concentration at 6 h (ng/mL)
Output spec: scalar in ng/mL, unitless text.

Given N#Cc1ccc(N2CCC(C(=O)Nc3ccc(OC4CCN(CC5CCN(c6ccc(N[C@H]7CCC(=O)NC7=O)cc6F)CC5)CC4)cn3)CC2)cc1C(F)(F)F [Example 2] , state its recorded concentration at 6 h.
610

----------
biological target: Androgen Receptor (AR) (Homo sapiens, UniProt P10275, T878A); construct: endogenous in cells; host or cells: LNCaP; experiment: Measurement of AR protein degradation in LNCaP cells by Western blotting; format: cell-based; conditions: LNCaP, 20 h, read-out: AR degradation in LNCaP cells (%)
Kindly supply the reported Dmax at 0.01 µM values for the records listed here.
Output spec: scalar in %, unitless text.

Given N#Cc1ccc(N2CCC(C(=O)Nc3ccc(OC4CCN(CC5CCN(c6ccc(N[C@H]7CCC(=O)NC7=O)cc6F)CC5)CC4)cn3)CC2)cc1Cl [Example 9] , state its recorded Dmax at 0.01 µM.
86

What do we get for N#Cc1ccc(N2CCC(C(=O)Nc3ccc(OC4CCN(CC5CCN(c6ccc(NC7CCC(=O)NC7=O)cc6F)CC5)CC4)nn3)CC2)cc1C(F)(F)F (stereo not shown) [Example 7] ?
79

What do we get for N#Cc1ccc(N2CCC(C(=O)Nc3ccc(OC4CCN(CC5CCN(c6ccc(N[C@@H]7CCC(=O)NC7=O)cc6F)CC5)CC4)cn3)CC2)cc1Cl [Example 10] ?
90

What do we get for N#Cc1ccc(N2CCC(C(=O)Nc3ccc(OC4CCN(CC5CCN(c6ccc(NC7CCC(=O)NC7=O)cc6F)CC5)CC4)nn3)CC2)c(F)c1Cl (stereo not shown) [Example 15] ?
88

What do we get for N#Cc1ccc(N2CCC(C(=O)Nc3ccc(OC4CCN(CC5CCN(c6ccc(NC7CCC(=O)NC7=O)cc6F)CC5)CC4)cn3)CC2)cc1C(F)(F)F (stereo not shown) [Example 1] ?
84

What do we get for N#Cc1ccc(N2CCC(C(=O)Nc3ccc(OC4CCN(CC5CCN(c6ccc(NC7CCC(=O)NC7=O)cc6F)CC5)CC4)cn3)CC2)cc1Cl (stereo not shown) [Example 8] ?
91

What do we get for N#Cc1ccc(N2CCC(C(=O)Nc3ccc(OC4CCN(C5CCN(c6ccc(NC7CCC(=O)NC7=O)cc6F)CC5)CC4)cn3)CC2)cc1C(F)(F)F (stereo not shown) [Example 4] ?
76

What do we get for N#Cc1ccc(N2CCC(C(=O)Nc3ccc(OC4CCN(CC5CCN(c6ccc(N[C@H]7CCC(=O)NC7=O)cc6F)CC5)CC4)cn3)CC2)cc1C(F)(F)F [Example 2] ?
86

What do we get for N#Cc1ccc(N2CCC(C(=O)Nc3ccc(OC4CCN(CC5CCN(c6ccc(N[C@@H]7CCC(=O)NC7=O)cc6F)CC5)CC4)cn3)CC2)cc1C(F)(F)F [Example 3] ?
93

What do we get for N#Cc1ccc(N2CCC(C(=O)Nc3ccc(OC4CCN(CC5CCN(c6ccc(NC7CCC(=O)NC7=O)cc6F)CC5)CC4)cn3)CC2)c(F)c1Cl (stereo not shown) [Example 12] ?
88

----------
Target: Androgen Receptor (AR) (Homo sapiens)
Assay: Pharmacodynamic efficacy: AR degradation in tumor of VCaP xenograft model after oral administration
Format: in vivo, CB17/SCID mice
Set-up: After sacrifice, tumor tissue was collected, washed in PBS, and stored at -80°C; from tissue; host or cells: VCaP xenograft tumour from CB17/SCID mice
Conditions: 10 mg/kg orally once daily for three days, tumor collected 6 hours after final administration
Description: The protocol for the creation of a xenograft model and pharmacodynamic experiments using VCaP cells was as follows. [Cell Culture] […] [Xenotransplantation] […] After diluting 100-fold in HBSS and measuring the cell count, the concentration was calculated as 3 x 10^6/50 µL/mouse, diluted in HBSS, and stored in an ice bucket. […] [Measurement of tumor size and division into groups] After 2-3 weeks of inoculation with cancer cells, the transplanted cancer cells grew and were measured in size using a caliper. […]
Kindly supply the reported AR degradation in tumor (%) values for the records listed here.
Output spec: scalar in %, unitless text.

Given N#Cc1ccc(N2CCC(C(=O)Nc3ccc(OC4CCN(CC5CCN(c6ccc(N[C@H]7CCC(=O)NC7=O)cc6F)CC5)CC4)cn3)CC2)cc1C(F)(F)F [Example 2] , state its recorded AR degradation in tumor (%).
96

What do we get for N#Cc1ccc(N2CCC(C(=O)Nc3ccc(OC4CCN(CC5CCN(c6ccc(N[C@H]7CCC(=O)NC7=O)cc6F)CC5)CC4)cn3)CC2)cc1Cl [Example 9] ?
97

What do we get for N#Cc1ccc(N2CCC(C(=O)Nc3ccc(OC4CCN(CC5CCN(c6ccc(NC7CCC(=O)NC7=O)cc6F)CC5)CC4)cn3)CC2)cc1C(F)(F)F (stereo not shown) [Example 1] ?
86

What do we get for N#Cc1ccc(N2CCC(C(=O)Nc3ccc(OC4CCN(CC5CCN(c6ccc(N[C@@H]7CCC(=O)NC7=O)cc6F)CC5)CC4)cn3)CC2)cc1C(F)(F)F [Example 3] ?
89

----------
assay: Plasma and tumor tissue concentrations following oral administration in VCaP xenograft model (HPLC/MS/MS); type: in vivo, mice; conditions: mouse, tumor tissue / plasma, 10 mg/kg orally once daily for 3 days, 24 hours after the last administration, read-out: Tissue to Plasma Ratio
MEASURE: Kp at 24 h

Given "N#Cc1ccc(N2CCC(C(=O)Nc3ccc(OC4CCN(CC5CCN(c6ccc(N[C@H]7CCC(=O)NC7=O)cc6F)CC5)CC4)cn3)CC2)cc1C(F)(F)F" , state its recorded Kp at 24 h.
16.3

----------
biological target: Androgen Receptor (AR) (Homo sapiens, UniProt P10275, T878A); construct: endogenous in cells; host or cells: LNCaP; assay: Measurement of AR protein degradation in LNCaP cells by Western blotting; format: cell-based; conditions: LNCaP, 20 h, read-out: AR degradation in LNCaP cells (%)
MEASURE: Dmax at 0.1 µM (%)
Output spec: scalar in %, unitless text.

Given N#Cc1ccc(N2CCC(C(=O)Nc3ccc(OC4CCN(CC5CCN(c6ccc(NC7CCC(=O)NC7=O)cc6F)CC5)CC4)cn3)CC2)cc1C(F)(F)F (stereo not shown) [Example 1] , state its recorded Dmax at 0.1 µM.
99

What do we get for N#Cc1ccc(N2CCC(C(=O)Nc3ccc(OC4CCN(CC5CCN(c6ccc(N[C@@H]7CCC(=O)NC7=O)cc6F)CC5)CC4)cn3)CC2)cc1Cl [Example 10] ?
99

What do we get for N#Cc1ccc(N2CCC(C(=O)Nc3ccc(OC4CCN(CC5CCN(c6ccc(NC7CCC(=O)NC7=O)cc6F)CC5)CC4)cn3)CC2)cc1Cl (stereo not shown) [Example 8] ?
98

What do we get for N#Cc1ccc(N2CCC(C(=O)Nc3ccc(OC4CCN(C5CCN(c6ccc(NC7CCC(=O)NC7=O)cc6F)CC5)CC4)cn3)CC2)cc1C(F)(F)F (stereo not shown) [Example 4] ?
93

What do we get for N#Cc1ccc(N2CCN(C(=O)Nc3ccc(OC4CCN(CC5CCN(c6ccc(NC7CCC(=O)NC7=O)cc6F)CC5)CC4)cn3)CC2)cc1C(F)(F)F (stereo not shown) [Example 6] ?
99

What do we get for N#Cc1ccc(N2CCC(C(=O)Nc3ccc(OC4CCN(CC5CCN(c6ccc(NC7CCC(=O)NC7=O)cc6F)CC5)CC4)nn3)CC2)cc1C(F)(F)F (stereo not shown) [Example 7] ?
93

What do we get for N#Cc1ccc(N2CCC(C(=O)Nc3ccc(OC4CCN(CC5CCN(c6ccc(N[C@H]7CCC(=O)NC7=O)cc6F)CC5)CC4)cn3)CC2)cc1Cl [Example 9] ?
96

----------
assay: Plasma and tumor tissue concentrations following oral administration in VCaP xenograft model (HPLC/MS/MS); format: in vivo, mice; conditions: mouse, plasma, 10 mg/kg orally once daily for 3 days, 2 hours after the last administration, read-out: Concentration in Plasma
MEASURE: concentration at 2 h
Quote the value and follow it with the unit of measurement.

Given N#Cc1ccc(N2CCC(C(=O)Nc3ccc(OC4CCN(CC5CCN(c6ccc(N[C@H]7CCC(=O)NC7=O)cc6F)CC5)CC4)cn3)CC2)cc1C(F)(F)F [Example 2] , state its recorded concentration at 2 h.
816 ng/mL

----------
Biological target: Androgen Receptor (AR) (Homo sapiens, UniProt P10275, T878A)
Construct: endogenous in cells; host or cells: LNCaP
Sequence (P10275 1-920 T878A): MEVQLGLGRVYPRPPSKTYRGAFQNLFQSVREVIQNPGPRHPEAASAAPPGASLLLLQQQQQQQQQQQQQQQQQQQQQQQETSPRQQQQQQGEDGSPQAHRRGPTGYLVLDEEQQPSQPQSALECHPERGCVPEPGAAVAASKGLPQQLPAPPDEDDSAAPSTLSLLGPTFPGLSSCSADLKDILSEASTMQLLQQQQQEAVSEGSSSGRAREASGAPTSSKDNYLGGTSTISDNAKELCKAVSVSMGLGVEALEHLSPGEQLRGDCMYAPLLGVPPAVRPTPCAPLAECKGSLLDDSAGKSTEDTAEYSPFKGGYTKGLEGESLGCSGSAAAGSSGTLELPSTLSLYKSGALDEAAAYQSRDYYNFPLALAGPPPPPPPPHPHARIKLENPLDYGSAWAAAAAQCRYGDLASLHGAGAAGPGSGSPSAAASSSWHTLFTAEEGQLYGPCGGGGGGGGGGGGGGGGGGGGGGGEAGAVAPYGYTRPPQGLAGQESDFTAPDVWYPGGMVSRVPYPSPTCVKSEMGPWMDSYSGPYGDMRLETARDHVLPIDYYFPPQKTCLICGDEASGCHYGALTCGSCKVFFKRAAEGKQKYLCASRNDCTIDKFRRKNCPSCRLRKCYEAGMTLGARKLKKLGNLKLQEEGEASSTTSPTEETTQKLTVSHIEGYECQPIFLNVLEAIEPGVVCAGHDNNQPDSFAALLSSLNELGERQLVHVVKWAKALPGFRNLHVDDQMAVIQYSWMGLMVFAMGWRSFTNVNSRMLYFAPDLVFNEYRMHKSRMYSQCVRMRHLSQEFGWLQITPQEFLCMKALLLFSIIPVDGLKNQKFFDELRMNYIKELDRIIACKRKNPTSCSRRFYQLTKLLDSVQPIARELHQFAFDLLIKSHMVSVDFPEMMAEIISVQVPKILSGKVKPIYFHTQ
Assay: Measurement of AR protein degradation in LNCaP cells by Western blotting
Format: cell-based
Conditions: LNCaP, 20 h, read-out: AR degradation in LNCaP cells (%)
Kindly supply the reported Dmax at 0.01 µM values for the records listed here.
Output spec: scalar in %, unitless text.

Given N#Cc1ccc(N2CCC(C(=O)Nc3ccc(OC4CCN(CC5CCN(c6ccc(NC7CCC(=O)NC7=O)cc6Cl)CC5)CC4)cn3)CC2)cc1C(F)(F)F (stereo not drawn) , state its recorded Dmax at 0.01 µM.
77

What do we get for N#Cc1ccc(N2CCC(C(=O)Nc3ccc(OC4CCN(CC5CCN(c6ccc(NC7CCC(=O)NC7=O)cc6C(F)(F)F)CC5)CC4)cn3)CC2)cc1C(F)(F)F (stereo not drawn) ?
51

What do we get for N#Cc1ccc(N2CCN(C(=O)Nc3ccc(OC4CCN(CC5CCN(c6ccc(NC7CCC(=O)NC7=O)cc6F)CC5)CC4)cn3)CC2)cc1C(F)(F)F (stereo not drawn) ?
84
